Biological target: T1, human IL-23R endogenously expressed on DB cells (human, UniProt Q5VWK5 24-629)
T1 sequence (looked up): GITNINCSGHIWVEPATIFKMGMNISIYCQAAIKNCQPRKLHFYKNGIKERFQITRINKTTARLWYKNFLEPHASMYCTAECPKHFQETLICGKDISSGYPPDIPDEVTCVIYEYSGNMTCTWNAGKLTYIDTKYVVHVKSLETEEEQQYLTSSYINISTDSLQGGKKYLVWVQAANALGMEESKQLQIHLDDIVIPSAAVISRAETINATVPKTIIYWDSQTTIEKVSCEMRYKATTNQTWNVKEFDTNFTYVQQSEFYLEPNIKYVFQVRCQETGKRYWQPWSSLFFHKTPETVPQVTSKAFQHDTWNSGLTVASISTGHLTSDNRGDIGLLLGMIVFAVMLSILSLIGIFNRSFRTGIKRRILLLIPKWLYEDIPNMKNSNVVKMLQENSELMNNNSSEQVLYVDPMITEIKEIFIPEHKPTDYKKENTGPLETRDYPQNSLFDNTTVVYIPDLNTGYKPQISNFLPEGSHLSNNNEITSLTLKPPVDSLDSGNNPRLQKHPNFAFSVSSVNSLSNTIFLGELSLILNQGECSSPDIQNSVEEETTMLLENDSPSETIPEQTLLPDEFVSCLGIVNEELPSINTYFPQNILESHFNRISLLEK
Assay: cell-based or functional assay
*1 amine or outer side, *2 acyl side, *3 side chain or, on linkers, in order; H or OH if unused. Bridges are numbered along the chain shown (N, C = ends). Primed or numbered codes have the meaning given here. Where no end group is shown, it is not given here. [ ]: non-standard residue; d: D form. The star is where a group is joined. 4‑Aminomethyl‑phenylacetyl = 4-aminomethyl-phenylacetyl unit, its amine closes the lactam, O=C(Cc1ccc(CN[*:1])cc1)[*:2]; 1,3‑dibromopropan‑2‑one″ = linker forming 1,3-dithio-propan-2-one bridge -SCH2C(=O)CH2S- between two Cys; γDab = iso-Dab: Dab joined to preceding residue by its side-chain amine, O=C([C@H](CCN[*:1])N[*:3])[*:2]; bLys = L-beta-lysine, (3S)-3,6-diaminohexanoic acid, O=C(C[C@H](CCCN[*:3])N[*:1])[*:2]; Q(pyrrolidin) = modified Gln, O=C(CC[C@H](N[*:1])C(=O)[*:2])N1CCCC1; Propanoyl(3-(3-pyridyl)) = O=C(CCc1cccnc1)*; Phe(4-Me) = Cc1ccc(C[C@H](N)C(=O)O)cc1; 2Nal = N[C@@H](Cc1ccc2ccccc2c1)C(=O)O; AEF = NCCOc1ccc(C[C@H](N)C(=O)O)cc1; 3Pal = N[C@@H](Cc1cccnc1)C(=O)O; Aad = N[C@@H](CCCC(=O)O)C(=O)O; αMeL = CC(C)C[C@](C)(N)C(=O)O; dOrn = NCCC[C@@H](N)C(=O)O; 3Amb = NCc1cccc(C(=O)O)c1; Dab = NCC[C@H](N)C(=O)O; Aib = CC(C)(N)C(=O)O
The binders listed here are annotated with their hIL-23 (pSTAT3) antagonist % inhibition.
Give just the numeric value; % need not be written.

Some binders with recorded hIL-23 (pSTAT3) antagonist % inhibition:
{"binder": "[dK]TVWQD[AEF][2Nal][αMeL]E[Dab][3Pal]-NH2 (lactam 1-10, N-6; SMILES CC(C)C[C@]1(C)NC(=O)[C@H](Cc2ccc3ccccc3c2)NC(=O)[C@H](Cc2ccc(OCCN)cc2)NC(=O)[C@@H]2CC(=O)N[C@H](CCCCNC(=O)CC[C@@H](C(=O)N[C@@H](CCN)C(=O)N[C@@H](Cc3cccnc3)C(N)=O)NC1=O)C(=O)N[C@@H]([C@@H](C)O)C(=O)N[C@@H](C(C)C)C(=O)N[C@@H](Cc1c[nH]c3ccccc13)C(=O)N[C@@H](CCC(N)=O)C(=O)N2) [Compound 3]", "hIL-23 (pSTAT3) antagonist % inhibition [%]": 101}
{"binder": "[bLys]TVWQE[AEF][2Nal][αMeL]E[Dab][3Pal]-NH2 (lactam 1-10, N-6) [Compound 12]", "hIL-23 (pSTAT3) antagonist % inhibition [%]": 100}
{"binder": "KTVWQE[Phe(4-Me)][2Nal][αMeL][γDab](Propanoyl(3-(3-pyridyl))) (lactam 1-C, N-6; also: iso-Dab joined to preceding residue via its side-chain amine) [Compound 24]", "hIL-23 (pSTAT3) antagonist % inhibition [%]": 99}
{"binder": "KIVWQE[Phe(4-Me)][2Nal][Aib]E[Dab][3Pal]-NH2 (lactam 1-10, N-6; SMILES CC[C@H](C)[C@@H]1NC(=O)[C@@H]2CCCCNC(=O)CC[C@@H](C(=O)N[C@@H](CCN)C(=O)N[C@@H](Cc3cccnc3)C(N)=O)NC(=O)C(C)(C)NC(=O)[C@H](Cc3ccc4ccccc4c3)NC(=O)[C@H](Cc3ccc(C)cc3)NC(=O)[C@H](CCC(=O)N2)NC(=O)[C@H](CCC(N)=O)NC(=O)[C@H](Cc2c[nH]c3ccccc23)NC(=O)[C@H](C(C)C)NC1=O) [Compound 17]", "hIL-23 (pSTAT3) antagonist % inhibition [%]": 99}
{"binder": "[3Amb]SCWQC[AEF][2Nal][αMeL]ER[3Pal]-NH2 (lactam N-10; linker 3-6 via 1,3‑dibromopropan‑2‑one″) [Ref 78]", "hIL-23 (pSTAT3) antagonist % inhibition [%]": 100}
{"binder": "[3Amb]SCWQC[AEF][2Nal][αMeL]E[dR]-NH2 (lactam N-10; linker 3-6 via 1,3‑dibromopropan‑2‑one″) [Ref 41]", "hIL-23 (pSTAT3) antagonist % inhibition [%]": 99}

Param item = [dOrn]TVWQE[AEF][2Nal][αMeL][Aad][Dab][3Pal]-NH2 (lactam 1-10, N-6; SMILES CC(C)C[C@]1(C)NC(=O)[C@H](Cc2ccc3ccccc3c2)NC(=O)[C@H](Cc2ccc(OCCN)cc2)NC(=O)[C@@H]2CCC(=O)N[C@H](CCCNC(=O)CCC[C@@H](C(=O)N[C@@H](CCN)C(=O)N[C@@H](Cc3cccnc3)C(N)=O)NC1=O)C(=O)N[C@@H]([C@@H](C)O)C(=O)N[C@@H](C(C)C)C(=O)N[C@@H](Cc1c[nH]c3ccccc13)C(=O)N[C@@H](CCC(N)=O)C(=O)N2) [Compound 6] ; retrieve measured hIL-23 (pSTAT3) antagonist % inhibition.
104

Item under review: KIVWQE[AEF][2Nal][αMeL]E[Dab][3Pal]-NHMe (lactam 1-10, N-6; SMILES CC[C@H](C)[C@@H]1NC(=O)[C@@H]2CCCCNC(=O)CC[C@@H](C(=O)N[C@@H](CCN)C(=O)N[C@@H](Cc3cccnc3)C(=O)NC)NC(=O)[C@](C)(CC(C)C)NC(=O)[C@H](Cc3ccc4ccccc4c3)NC(=O)[C@H](Cc3ccc(OCCN)cc3)NC(=O)[C@H](CCC(=O)N2)NC(=O)[C@H](CCC(N)=O)NC(=O)[C@H](Cc2c[nH]c3ccccc23)NC(=O)[C@H](C(C)C)NC1=O) [Compound 60] . Reported hIL-23 (pSTAT3) antagonist % inhibition?
101

Dear colleague, I am looking for the recorded hIL-23 (pSTAT3) antagonist % inhibition of the following binder: [4‑Aminomethyl‑phenylacetyl]SEW[Q(pyrrolidin)][Dab][AEF][2Nal][αMeL]E[Dab]-NH2 (lactam N-10; bridge 3-6; also: (2c) bridge type not defined) [Ref 146]
98

Given the binder [4‑Aminomethyl‑phenylacetyl]SCWQC[AEF][2Nal][αMeL]ES-NH2 (lactam (positions not given here); bridge 3-6; not fully specified (bridges)) [Ref 81] , what is its reported hIL-23 (pSTAT3) antagonist % inhibition?
95

Please report the recorded hIL-23 (pSTAT3) antagonist % inhibition for [4‑Aminomethyl‑phenylacetyl]SCWQC[AEF][2Nal][αMeL]E[Dab][3Pal]-NH2 (lactam N-10; linker 3-6 via 1,3‑dibromopropan‑2‑one″) [Ref 120] .
101
